Provide the reported MFI Ratio of each item.
- system under test: T1, full length human GLP-1R with N-terminal FLAG tag and C-terminal GFP tag, on CHO cells (human, UniProt P43220 24-463)
- T1 construct: whole, on cells; the cell line itself is tied to UniProt P43220; also called FLAG-GLP-1R-GFP; CHO-GLP-1R
- experimental details: flow cytometry, expressing vs parent CHO cells
I'd appreciate a reply containing only the number, no unit.

Prompt: Can you look up the measured MFI Ratio of GLP1R-221-017 (antibody, V domains shown, IgG) VH: QVQLVESGGGVVQPGRSLRLSCAASGFTFSDYGVHWVRQAPGKGLEWVAFISYDESNKYYADSVKGRFTISRDNSKNTLYLQMNSLRAEDTAVYYCAKHMSMQEGAVTGEYQAAKEFIAWLVKGRVRADLVGDAFDVWGQGTLVTVSS VL: QSVLTQPPSVSAAPGQKVTISCSGSSSNIGNTYVSWYQQLPGTAPKLLIYDDYKRPSGIPDRFSGSKSGTSATLGITGLQTGDEADYYCATWDATLNTGVFGGGTKLTVL for me?
Completion: 1480

Prompt: Param item: GLP1R-3 (antibody, human IgG2, lambda, V domains shown, full length human IgG2; also called GLP1R01-3) VH: QVQLVESGGGVVQPGRSLRLSCAASGFTFSSYGMHWVRQAPGKGLEWVSFISYDESNKYYADSVKGRFTISRDNSKNTLYLQMNSLRAEDTAVYYCAKHMSMQEGAVTGEGQAAKEFIAWLVKGRVRADLVGDAFDVWGQGTLVTVSS VL: QSVLTQPPSVSAAPGQKVTISCSGSSSNIADNYVSWYQQLPGTAPKLLIYDNNKRPSGIPDRFSGSKSGTSATLGITGLQTGDEADYYCGTWDNYLGAGVFGGGTKLTVLG
Completion: 993

Hey, just so you know, these numbers are from patent US20250340658A1.
